meta.source: paper PMC12416549

apparent Kd (screen) by entry:
target_under_test: T1, TNFR1 (Homo sapiens, UniProt P19438)
T1 chain: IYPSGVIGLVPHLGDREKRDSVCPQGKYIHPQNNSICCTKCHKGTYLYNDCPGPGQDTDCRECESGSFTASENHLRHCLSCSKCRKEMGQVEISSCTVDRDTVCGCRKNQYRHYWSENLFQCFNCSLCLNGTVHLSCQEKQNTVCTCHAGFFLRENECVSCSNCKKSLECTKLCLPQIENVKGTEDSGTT
assay_overview: yeast display SC50
# number only, unit nM dropped from output

A selection of reference data follows.
- binder: "A106P (designed binder) SMEEEVEKAAKEYEKKKKEAIEKHLEKLKAKDKEAAERFLKELEEAAKEYAKDEAKTMSEEEAKRRAKKYKEKVLLSELSEEEQKEIKEAEEKLVRTILKYVEEAPK"
  measured_number: 0.653
- binder: "E44L (designed binder) SMEEEVEKAAKEYEKKKKEAIEKHLEKLKAKDKEAAERFLKELLEAAKEYAKDEAKTMSEEEAKRRAKKYKEKVLLSELSEEEQKEIKEAEEKLVRTILKYVEEAAK"
  measured_number: 1.4
- binder: "E49W (designed binder) SMEEEVEKAAKEYEKKKKEAIEKHLEKLKAKDKEAAERFLKELEEAAKWYAKDEAKTMSEEEAKRRAKKYKEKVLLSELSEEEQKEIKEAEEKLVRTILKYVEEAAK"
  measured_number: 16.7

Turning now to a further binder:
Q: Using known records, supply apparent Kd (screen) for E19A (designed binder) SMEEEVEKAAKEYEKKKKAAIEKHLEKLKAKDKEAAERFLKELEEAAKEYAKDEAKTMSEEEAKRRAKKYKEKVLLSELSEEEQKEIKEAEEKLVRTILKYVEEAAK
A: 0.869
